B1: KAT8 regulatory NSL complex subunit 2, residues 28 to 91; numbered along this chain, Q9H9L4 (parent)
chain: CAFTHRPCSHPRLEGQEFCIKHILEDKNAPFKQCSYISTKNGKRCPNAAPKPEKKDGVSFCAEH

- Variants of: B1
- protocol.description: abundance fitness (aPCA) (normalised: wild type 0, dead -1); higher = more abundant; growth selection in yeast, the domain comes from the species named
- reported.conditions: Homo sapiens
Given measured abundance fitness, output True if it is greater than or equal to -0.2 and False if not.

>>> assigned_class("H5E")
"True"
>>> assigned_class("T4V")
"False"
>>> assigned_class("A2K")
"True"
>>> assigned_class("I23P")
"False"
>>> assigned_class("P7L")
"True"
>>> assigned_class("G42C")
"True"
>>> assigned_class("T4S")
"True"
>>> assigned_class("E25A")
"True"
>>> assigned_class("A29Y")
"False"
>>> assigned_class("P50M")
"False"
>>> assigned_class("R12D")
"False"
>>> assigned_class("I37S")
"True"
>>> assigned_class("N28Q")
"True"
>>> assigned_class("N41E")
"True"
>>> assigned_class("C19I")
"False"
>>> assigned_class("F31L")
"True"
>>> assigned_class("E25C")
"False"
>>> assigned_class("P30N")
"True"
>>> assigned_class("S38A")
"True"
>>> assigned_class("P7F")
"True"
>>> assigned_class("L13T")
"False"
>>> assigned_class("A48Y")
"True"
>>> assigned_class("Q16R")
"True"
>>> assigned_class("H22T")
"False"
>>> assigned_class("S35A")
"True"
>>> assigned_class("A62R")
"True"
>>> assigned_class("H22F")
"False"
>>> assigned_class("C8S")
"False"
>>> assigned_class("K51M")
"True"
>>> assigned_class("C34E")
"True"
>>> assigned_class("P46T")
"True"
>>> assigned_class("D26V")
"True"
>>> assigned_class("F3L")
"False"
>>> assigned_class("A29I")
"False"
>>> assigned_class("N28L")
"True"
>>> assigned_class("Q33F")
"False"
>>> assigned_class("H22K")
"False"
>>> assigned_class("K43V")
"True"
>>> assigned_class("C1I")
"False"
>>> assigned_class("I37G")
"True"
>>> assigned_class("Y36T")
"True"
>>> assigned_class("R12E")
"False"
